B1: tRNA (parent)
chain: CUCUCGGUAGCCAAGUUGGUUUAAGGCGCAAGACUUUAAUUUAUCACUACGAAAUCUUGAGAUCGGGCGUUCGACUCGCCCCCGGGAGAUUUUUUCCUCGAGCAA

Variants of: B1
Assay: nonsense suppression (GFP-seq) (ratio to wild type); higher = more function; SUP4oc tRNA, yeast GFP reporter sort-seq
This sample holds only a part of the variants without activity.
metric: nonsense suppression

// solved cases for nonsense suppression follow
U55G U63A G86C
≤ 0.026
C81A A87U
≤ 0.026
A30C U55A
≤ 0.026

According to the records, this variant C27A A33C G66U displays nonsense suppression of ≤ 0.026

Field nonsense suppression (entry A14U U20C A24G C75G ) reads ≤ 0.026
